Reported koff values for a set of binders
target: T1, cynomolgus suPAR (cynomolgus, UniProt Q9GK78 23-303, limits assumed); test: BLI (Octet) off-rate screen of scFv clones
T1 construct: Target antigen of the off-rate screen; also called cynomolgus uPAR; cynoPLAUR-His
T1 sequence (Q9GK78 23-303 limits assumed): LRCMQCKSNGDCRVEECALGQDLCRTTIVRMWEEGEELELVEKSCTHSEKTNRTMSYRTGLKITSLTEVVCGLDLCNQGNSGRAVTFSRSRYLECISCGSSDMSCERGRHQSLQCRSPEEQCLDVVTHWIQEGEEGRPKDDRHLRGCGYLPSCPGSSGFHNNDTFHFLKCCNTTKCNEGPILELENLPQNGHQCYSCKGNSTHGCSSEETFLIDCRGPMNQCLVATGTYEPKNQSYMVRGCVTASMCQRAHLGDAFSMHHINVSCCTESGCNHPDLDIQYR
Answer format: numeric, s⁻¹ implied, no suffix.

## Input Which koff reading was recorded for the binder suPAR_DB03_C02 (scFv, V domains shown, screened as scFv) VH: QVQLVQSGAEVKKPGASVKVSCKASGYSFTNYYIHWVRQAPGQGLEWMGWIDHENGNTIYDQKFQGRVTMTRDTSTSTVYMELSSLRSEDTAVYYCARGNDVDWFVYWGQGTLVTVSS VL: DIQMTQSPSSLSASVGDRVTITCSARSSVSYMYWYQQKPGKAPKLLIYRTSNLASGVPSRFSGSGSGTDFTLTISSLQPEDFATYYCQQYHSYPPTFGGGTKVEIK ?
## Output 0.000366

Continuing:
## Input // lookup koff for suPAR_DB02_H07 (scFv, V domains shown, screened as scFv) VH: QVQLVQSGAEVKKPGASVKVSCKASGYTFTSYYVHWVRQAPGQGLEWMGWVDPSSGATDYAQKFQGRVTMTRDTSTSTVYMELSSLRSEDTAVYYCARGYDVDWFVYWGQGTLVTVSS VL: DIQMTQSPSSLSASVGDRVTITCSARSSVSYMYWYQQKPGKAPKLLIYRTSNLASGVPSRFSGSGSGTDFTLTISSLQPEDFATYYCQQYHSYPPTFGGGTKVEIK
## Output 0.00146

## Input What koff value was documented for this binder, suPAR_DB03_C08 (scFv, V domains shown, screened as scFv) VH: QVQLVQSGAEVKKPGASVKVSCKASGGTFTNYYMHWVRQAPGQGLEWMGWIDHENGSTIYAQKFQGRVTMTRDTSTSTVYMELSSLRSEDTAVYYCARGYDVDWFVYWGQGTLVTVSS VL: DIQMTQSPSSLSASVGDRVTITCSARSSVSYMYWYQQKPGKAPKLLIYRTSSLASGVPSRFSGSGSGTDFTLTISSLQPEDFATYYCQQYHSYPPTFGGGTKVEIK ?
## Output 9.98e-05

## Input Return reported koff; argument: suPAR_DB03_D10 (scFv, V domains shown, screened as scFv) VH: QVQLVQSGAEVKKPGASVKVSCKASGYTFTSYYMHWVRQAPGQGLEWMGWIDPENGNTIYAQKFQGRVTMTRDTSTSTVYMELSSLRSEDTAVYYCARGYDVDWFVYWGQGTLVTVSS VL: DIQMTQSPSSLSASVGDRVTITCSARSSVSYMYWYQQKPGKAPKLLIYRTSNLQSGVPSRFSGSGSGTDFTLTISSLQPEDFATYYCQQYHSYPPTFGGGTKVEIK
## Output 0.000286

## Input Value lookup for koff; key = suPAR_DB02_H09 (scFv, V domains shown, screened as scFv) VH: QVQLVQSGAEVKKPGASVKVSCKASGYTFTSYYMHWVRQAPGQGLEWMGWIDPENGNTIYAQKFQGRVTMTRDTSTSTVYMELSSLRSEDTAVYYCARGYDVDWFVFWGQGTLVTVSS VL: DIQMTQSPSSLSASVGDRVTITCSARSSVSYMYWYQQKPGKAPKLLIYATSNLQSGVPSRFSGSGSGTDFTLTISSLQPEDFATYYCQQYHSYPPTFGGGTKVEIK
## Output 0.00218
